Protocol Details: Gelling of water-immiscible cosmetic liquids in 96 well glass micro-titre plate
Type: physicochemical
Set-up: key: gel; g4: gel after overnight (18 hrs) storage at 4° C.; g22: gel after overnight (18 hrs) storage at 22° C.; sg: soft gel; sg22: soft gel after overnight (18 hrs) storage at 22° C.; solution; *: the test at 4° C. was not carried out
Assay Setup: 5% cellobiose ester in Fluid AP
Reported Metric: gelling of Fluid AP

Compound	gelling of Fluid AP
CCCCCCCCCC(=O)OCC1OC(OC2C(COC(=O)CCCCCCCCC)OC(OC(=O)c3ccc(-c4ccccc4)cc3)C(OC(=O)CCCCCCCCC)C2OC(=O)CCCCCCCCC)C(OC(=O)CCCCCCCCC)C(OC(=O)CCCCCCCCC)C1OC(=O)CCCCCCCCC (mixture of isomers) [Ex 2.9]	gel
CCCCCCCCC(=O)OCC1OC(OC2C(COC(=O)CCCCCCCC)OC(OC(=O)c3ccc4ccccc4c3)C(OC(=O)CCCCCCCC)C2OC(=O)CCCCCCCC)C(OC(=O)CCCCCCCC)C(OC(=O)CCCCCCCC)C1OC(=O)CCCCCCCC (mixture of isomers) [Ex 1.4]	gel
CCCCCCCCCC(=O)OCC1OC(OC2C(COC(=O)CCCCCCCCC)OC(OC(=O)C3CCCCC3)C(OC(=O)CCCCCCCCC)C2OC(=O)CCCCCCCCC)C(OC(=O)CCCCCCCCC)C(OC(=O)CCCCCCCCC)C1OC(=O)CCCCCCCCC (mixture of isomers) [Ex 2.10]	gel
CCCCCCCCC(=O)OCC1OC(OC2C(COC(=O)CCCCCCCC)OC(OC(=O)CCCC)C(OC(=O)CCCCCCCC)C2OC(=O)CCCCCCCC)C(OC(=O)CCCCCCCC)C(OC(=O)CCCCCCCC)C1OC(=O)CCCCCCCC (mixture of isomers) [Ex 1.20]	g22
CCCCCCCCC(=O)OCC1OC(OC2C(COC(=O)CCCCCCCC)OC(OC(=O)c3ccccc3)C(OC(=O)CCCCCCCC)C2OC(=O)CCCCCCCC)C(OC(=O)CCCCCCCC)C(OC(=O)CCCCCCCC)C1OC(=O)CCCCCCCC (mixture of isomers) [Ex 1.1]	gel
CCCCCCCCC(=O)OCC1OC(OC2C(COC(=O)CCCCCCCC)OC(OC(=O)CCCCCC)C(OC(=O)CCCCCCCC)C2OC(=O)CCCCCCCC)C(OC(=O)CCCCCCCC)C(OC(=O)CCCCCCCC)C1OC(=O)CCCCCCCC (mixture of isomers) [Ex 1.22]	gel
CCCCCCCCCCCCCCCC(=O)OC1OC(COC(=O)CCCCCCCC)C(OC2OC(COC(=O)CCCCCCCC)C(OC(=O)CCCCCCCC)C(OC(=O)CCCCCCCC)C2OC(=O)CCCCCCCC)C(OC(=O)CCCCCCCC)C1OC(=O)CCCCCCCC (mixture of isomers) [Ex 1.9]	gel
CCCCCCCCC(=O)OCC1OC(OC2C(COC(=O)CCCCCCCC)OC(OC(=O)CC)C(OC(=O)CCCCCCCC)C2OC(=O)CCCCCCCC)C(OC(=O)CCCCCCCC)C(OC(=O)CCCCCCCC)C1OC(=O)CCCCCCCC (mixture of isomers) [Ex 1.16]	gel

Now for a further compound.
Answer with reported gelling of Fluid AP of CCCCCCCCC(=O)OCC1OC(OC2C(COC(=O)CCCCCCCC)OC(OC(=O)C3CCCCC3)C(OC(=O)CCCCCCCC)C2OC(=O)CCCCCCCC)C(OC(=O)CCCCCCCC)C(OC(=O)CCCCCCCC)C1OC(=O)CCCCCCCC (mixture of isomers) [Ex 1.11] gel

* * *

Protocol Details: Gelling of water-immiscible cosmetic liquids in 96 well glass micro-titre plate
Assay type: physicochemical
Parameters: key: gel; g4: gel after overnight (18 hrs) storage at 4° C.; g22: gel after overnight (18 hrs) storage at 22° C.; sg: soft gel; sg22: soft gel after overnight (18 hrs) storage at 22° C.; solution; *: the test at 4° C. was not carried out
Assay Setup: 5% cellobiose ester in ISA; 150° C. 2.5 hours, cooled to ambient
Reported Metric: gelling of ISA

Compound	Result
CCCCCCCCCC(=O)OCC1OC(OC2C(COC(=O)CCCCCCCCC)OC(OC(C)=O)C(OC(=O)CCCCCCCCC)C2OC(=O)CCCCCCCCC)C(OC(=O)CCCCCCCCC)C(OC(=O)CCCCCCCCC)C1OC(=O)CCCCCCCCC (mixture of isomers) [Ex 2.5]	gel
CCCCCCCCC(=O)OCC1OC(OC2C(COC(=O)CCCCCCCC)OC(OC(C)=O)C(OC(=O)CCCCCCCC)C2OC(=O)CCCCCCCC)C(OC(=O)CCCCCCCC)C(OC(=O)CCCCCCCC)C1OC(=O)CCCCCCCC (mixture of isomers) [Ex 1.7]	sg
CCCCCCCCCC(=O)OCC1OC(OC2C(COC(=O)CCCCCCCCC)OC(OC(=O)C3CCCCC3)C(OC(=O)CCCCCCCCC)C2OC(=O)CCCCCCCCC)C(OC(=O)CCCCCCCCC)C(OC(=O)CCCCCCCCC)C1OC(=O)CCCCCCCCC (mixture of isomers)	g22
CCCCCCCCCC(=O)OCC1OC(OC2C(COC(=O)CCCCCCCCC)OC(OC(=O)c3ccccc3)C(OC(=O)CCCCCCCCC)C2OC(=O)CCCCCCCCC)C(OC(=O)CCCCCCCCC)C(OC(=O)CCCCCCCCC)C1OC(=O)CCCCCCCCC (mixture of isomers) [Ex 2.2]	gel

* * *

Protocol Details: Gelling of water-immiscible cosmetic liquids in 96 well glass micro-titre plate
Assay type: physicochemical
Design: key: gel; g4: gel after overnight (18 hrs) storage at 4° C.; g22: gel after overnight (18 hrs) storage at 22° C.; sg: soft gel; sg22: soft gel after overnight (18 hrs) storage at 22° C.; solution; *: the test at 4° C. was not carried out
Assay Setup: 10% cellobiose ester in Finsolv TN
Procedure: In this Example, various samples of esterified cellobiose prepared as in Example 1 or 2 above, were used to gel water-immiscible cosmetic liquids, in accordance with the procedure given below, in which a large number of gels can be prepared simultaneously. The samples were tested in a 96 well (8×12 rows) glass micro-titre plate. […] The contents of the wells were assessed at the end of the cooling period, by visual inspection and by poking the contents of each well with a micro-spatula. […]

Compound	gelling of Finsolv TN
CCCCCCCCC(=O)OCC1OC(OC2C(COC(=O)CCCCCCCC)OC(OC(=O)c3ccc4ccccc4c3)C(OC(=O)CCCCCCCC)C2OC(=O)CCCCCCCC)C(OC(=O)CCCCCCCC)C(OC(=O)CCCCCCCC)C1OC(=O)CCCCCCCC (mixture of isomers) [Ex 1.4]	sol
CCCCCCCCC(=O)OCC1OC(OC2C(COC(=O)CCCCCCCC)OC(OC(=O)c3ccccc3)C(OC(=O)CCCCCCCC)C2OC(=O)CCCCCCCC)C(OC(=O)CCCCCCCC)C(OC(=O)CCCCCCCC)C1OC(=O)CCCCCCCC (mixture of isomers) [Ex 1.2]	sol
CCCCCCCCC(=O)OCC1OC(OC2C(COC(=O)CCCCCCCC)OC(OC(=O)c3ccccc3)C(OC(=O)CCCCCCCC)C2OC(=O)CCCCCCCC)C(OC(=O)CCCCCCCC)C(OC(=O)CCCCCCCC)C1OC(=O)CCCCCCCC (mixture of isomers) [Ex 1.1]	gel
CCCCCCCCC(=O)OCC1OC(OC2C(COC(=O)CCCCCCCC)OC(OC(=O)c3ccc4ccccc4c3)C(OC(=O)CCCCCCCC)C2OC(=O)CCCCCCCC)C(OC(=O)CCCCCCCC)C(OC(=O)CCCCCCCC)C1OC(=O)CCCCCCCC (mixture of isomers) [Ex 1.3]	g4

* * *

Protocol Details: Gelling of water-immiscible cosmetic liquids in 96 well glass micro-titre plate
Type: physicochemical
Set-up: key: gel; g4: gel after overnight (18 hrs) storage at 4° C.; g22: gel after overnight (18 hrs) storage at 22° C.; sg: soft gel; sg22: soft gel after overnight (18 hrs) storage at 22° C.; solution; *: the test at 4° C. was not carried out
Assay Setup: 10% cellobiose ester in DC556

Molecule	gelling of DC556
CCCCCCCCC(=O)OCC1OC(OC2C(COC(=O)CCCCCCCC)OC(OC(=O)CCCCCC)C(OC(=O)CCCCCCCC)C2OC(=O)CCCCCCCC)C(OC(=O)CCCCCCCC)C(OC(=O)CCCCCCCC)C1OC(=O)CCCCCCCC (mixture of isomers)	g22
CCCCCCCCCC(=O)OCC1OC(OC2C(COC(=O)CCCCCCCCC)OC(OC(C)=O)C(OC(=O)CCCCCCCCC)C2OC(=O)CCCCCCCCC)C(OC(=O)CCCCCCCCC)C(OC(=O)CCCCCCCCC)C1OC(=O)CCCCCCCCC (mixture of isomers)	gel
CCCCCCCCC(=O)OCC1OC(OC2C(COC(=O)CCCCCCCC)OC(OC(=O)CCCCC)C(OC(=O)CCCCCCCC)C2OC(=O)CCCCCCCC)C(OC(=O)CCCCCCCC)C(OC(=O)CCCCCCCC)C1OC(=O)CCCCCCCC (mixture of isomers)	gel
CCCCCCCCC(=O)OCC1OC(OC2C(COC(=O)CCCCCCCC)OC(OC(=O)CCCC)C(OC(=O)CCCCCCCC)C2OC(=O)CCCCCCCC)C(OC(=O)CCCCCCCC)C(OC(=O)CCCCCCCC)C1OC(=O)CCCCCCCC (mixture of isomers)	g22
